Target: Glutamate NMDA receptor
Experiment: In vitro binding affinity towards glycine modulatory site on the NMDA receptors using [3H]DCKA as radioligand in rat cortical membrane preparations
property: IC50 (µM)
Numbers only, in µM.

>  <compound>
O=C(O)CCC(=O)N1CCCC12c1ccccc1-c1nc(O)c3nccn3c12 (stereo not drawn)

>  <property>
IC50

>  <testResult>
10

$$$$

For the 4 compounds below, give their IC50 values.
1. O=C(NCc1ccccc1)N1CCCC12c1ccccc1-c1nc(O)c3nccn3c12 (stereo not drawn)
2. CN1CCCC12c1ccccc1-c1nc(O)c3nccn3c12 (stereo in doubt; (+)-3e)
3. Oc1nc2c(n3ccnc13)C1(CCNCC1)c1ccccc1-2
4. Oc1nc2c(n3ccnc13)C1(CCCC1)c1ccccc1-2

1: 0.9; 2: 0.172; 3: 2; 4: 1.4

For the 8 compounds below, give their IC50 values.
1. NCC(=O)N1CCCC12c1ccccc1-c1nc(O)c3nccn3c12 (stereo not drawn)
2. O=C1CCC2(N1)c1ccccc1-c1nc(O)c3nccn3c12 (stereo not drawn)
3. Oc1nc2c(n3ccnc13)C1(CCNC1)c1ccccc1-2 (stereo not drawn)
4. Oc1nc2c(n3ccnc13)C1(CCCCN1)c1ccccc1-2 (stereo not drawn)
5. CCCCC1(N)c2ccccc2-c2nc(O)c3nccn3c21 (stereo not drawn)
6. CCN1CCCC12c1ccccc1-c1nc(O)c3nccn3c12 (stereo not drawn)
7. CC1(N)c2ccccc2-c2nc(O)c3nccn3c21 (stereo not drawn)
8. CNC1(C)c2ccccc2-c2nc(O)c3nccn3c21 (stereo not drawn)

1. 2.8
2. 1.7
3. 0.64
4. 1.18
5. 0.3
6. 0.53
7. 1.4
8. 2.74

For the 4 compounds below, give their IC50 values.
1. CCCN1CCCC12c1ccccc1-c1nc(O)c3nccn3c12 (stereo not drawn)
2. CC1(C)c2ccccc2-c2nc(O)c3nccn3c21
3. CCCC1(N)c2ccccc2-c2nc(O)c3nccn3c21 (stereo not drawn)
4. Oc1nc2c(n3ccnc13)C1(CC1)c1ccccc1-2

1. 0.47
2. 1
3. 0.52
4. 0.6

====

Biological target: Glutamate receptor ionotropic, AMPA (Rattus norvegicus, UniProt P19490+P19491+P19492+P19493)
Test: In vitro binding affinity towards ionotropic glutamate receptor AMPA using [3H]AMPA as radioligand in rat cortical membrane preparations
Assay type: cell membranes
I'd appreciate it if you marked entries 1 when IC50 is lower than 0.6 µM and -1 when it is not.

For orientation, consider the following solved cases.
>  <compound>
CN1CCCC12c1ccccc1-c1nc(O)c3nccn3c12 (single isomer, unassigned; (-))

>  <categoryLabel>
-1

$$$$
>  <compound>
CN1CCCC12c1ccccc1-c1nc(O)c3nccn3c12 (stereo in doubt; 3e)

>  <categoryLabel>
1

$$$$
>  <compound>
CNC1(C)c2ccccc2-c2nc(O)c3nccn3c21 (configuration not stated)

>  <categoryLabel>
-1

$$$$
>  <compound>
O=C(O)CCC(=O)N1CCCC12c1ccccc1-c1nc(O)c3nccn3c12 (configuration not stated)

>  <categoryLabel>
1

$$$$
>  <compound>
CC1(C)c2ccccc2-c2nc(O)c3nccn3c21

>  <categoryLabel>
-1

$$$$
>  <compound>
CC(C)(C)OC(=O)N1CCCC12c1ccccc1-c1nc(O)c3nccn3c12 (configuration not stated)

>  <categoryLabel>
-1

$$$$
>  <compound>
CNC(=O)N1CCCC12c1ccccc1-c1nc(O)c3nccn3c12 (configuration not stated)

>  <categoryLabel>
-1

$$$$
>  <compound>
O=c1[nH]c2cc(-n3ccnc3)c([N+](=O)[O-])cc2[nH]c1=O [YM-90K]

>  <categoryLabel>
1

$$$$
>  <compound>
Oc1nc2c(n3ccnc13)C1(CCCCN1)c1ccccc1-2 (configuration not stated)

>  <categoryLabel>
1

$$$$
>  <compound>
CC1(N)c2ccccc2-c2nc(O)c3nccn3c21 (configuration not stated)

>  <categoryLabel>
-1

$$$$

Could you please tell me whether IC50 recorded for O=C(Nc1ccccc1)N1CCCC12c1ccccc1-c1nc(O)c3nccn3c12 (configuration not stated) is less than 0.6 µM?
-1

Could you please tell me whether IC50 recorded for Oc1nc2c(n3ccnc13)C1(CCCC1)c1ccccc1-2 is less than 0.6 µM?
-1

Could you please tell me whether IC50 recorded for NCC(=O)N1CCCC12c1ccccc1-c1nc(O)c3nccn3c12 (configuration not stated) is less than 0.6 µM?
-1

Could you please tell me whether IC50 recorded for CCCCC1(N)c2ccccc2-c2nc(O)c3nccn3c21 (configuration not stated) is less than 0.6 µM?
-1

Could you please tell me whether IC50 recorded for Oc1nc2c(n3ccnc13)C1(CC1)c1ccccc1-2 is less than 0.6 µM?
-1

Could you please tell me whether IC50 recorded for CCCC1(N)c2ccccc2-c2nc(O)c3nccn3c21 (configuration not stated) is less than 0.6 µM?
1

Could you please tell me whether IC50 recorded for Oc1nc2c(n3ccnc13)Cc1ccccc1-2 is less than 0.6 µM?
-1

Could you please tell me whether IC50 recorded for O=C1CCC2(N1)c1ccccc1-c1nc(O)c3nccn3c12 (configuration not stated) is less than 0.6 µM?
-1

Could you please tell me whether IC50 recorded for Oc1nc2c(n3ccnc13)C1(CCNCC1)c1ccccc1-2 is less than 0.6 µM?
1

Could you please tell me whether IC50 recorded for Oc1nc2c(n3ccnc13)C1(CCCN1Cc1ccccc1)c1ccccc1-2 (configuration not stated) is less than 0.6 µM?
-1

Could you please tell me whether IC50 recorded for CN1CCCC12c1ccccc1-c1nc(O)c3nccn3c12 (stereo in doubt; (+)-3e) is less than 0.6 µM?
1

Could you please tell me whether IC50 recorded for O=C(NCc1ccccc1)N1CCCC12c1ccccc1-c1nc(O)c3nccn3c12 (configuration not stated) is less than 0.6 µM?
-1

Could you please tell me whether IC50 recorded for CCN1CCCC12c1ccccc1-c1nc(O)c3nccn3c12 (configuration not stated) is less than 0.6 µM?
-1

Could you please tell me whether IC50 recorded for Oc1nc2c(n3ccnc13)C1(CCNC1)c1ccccc1-2 (configuration not stated) is less than 0.6 µM?
1

Could you please tell me whether IC50 recorded for CCCN1CCCC12c1ccccc1-c1nc(O)c3nccn3c12 (configuration not stated) is less than 0.6 µM?
-1

====

Target: Glutamate NMDA receptor
Assay: In vitro binding affinity towards glycine modulatory site on the NMDA receptors using [3H]DCKA as radioligand in rat cortical membrane preparations
I'd appreciate it if you marked entries 1.0 when IC50 is lower than 600 nM and 0.0 when it is not.

>  <molecule>
CNC(=O)N1CCCC12c1ccccc1-c1nc(O)c3nccn3c12 (stereo not given)

>  <categoryLabel>
0.0

$$$$

Could you please tell me whether IC50 recorded for Oc1nc2c(n3ccnc13)Cc1ccccc1-2 is less than 600 nM?
0.0

Could you please tell me whether IC50 recorded for CN1CCCC12c1ccccc1-c1nc(O)c3nccn3c12 (single isomer, unassigned; (-)) is less than 600 nM?
0.0

Could you please tell me whether IC50 recorded for CN1CCCC12c1ccccc1-c1nc(O)c3nccn3c12 (stereo in doubt; 3e) is less than 600 nM?
1.0

Could you please tell me whether IC50 recorded for O=c1[nH]c2cc(-n3ccnc3)c([N+](=O)[O-])cc2[nH]c1=O [YM-90K] is less than 600 nM?
0.0

Could you please tell me whether IC50 recorded for Oc1nc2c(n3ccnc13)C1(CCCN1)c1ccccc1-2 (stereo not given) is less than 600 nM?
1.0

Could you please tell me whether IC50 recorded for O=C(Nc1ccccc1)N1CCCC12c1ccccc1-c1nc(O)c3nccn3c12 (stereo not given) is less than 600 nM?
1.0

Could you please tell me whether IC50 recorded for CC(=O)N1CCCC12c1ccccc1-c1nc(O)c3nccn3c12 (stereo not given) is less than 600 nM?
1.0

Could you please tell me whether IC50 recorded for Oc1nc2c(n3ccnc13)C1(CCCN1Cc1ccccc1)c1ccccc1-2 (stereo not given) is less than 600 nM?
0.0
